Values compiled from ChEMBL document CHEMBL1961873.

- assayedTarget: Tyrosine-protein kinase Blk (Homo sapiens);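 also: reported value is the mean percent inhibition of BLK kinase activity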
- details: at 0.1 µM
assayMetric: inhibition (%)
The response must be a number in % with no trailing unit.

Query Cc1ccc(-c2cc3c(NC(=O)C4CC4)ncnc3o2)cc1 yields inhibition of 3.18

Query CN(c1ccc(NC(=O)NCCN2CCOCC2)cc1)c1ccnc(Nc2ccc(CS(C)(=O)=O)cc2)n1 yields inhibition of 2.89

Query CS(=O)(=O)Nc1ccc(-c2ccc3c(NC(=O)C4CC4)n[nH]c3c2)cc1 yields inhibition of 2.19

Query COc1ccc(Nc2ncc(-c3ccccc3)o2)cc1OC yields inhibition of 1.21

Query O=C(O[C@H]1CN[C@H](C#Cc2cc3ncnc(Nc4ccc5c(cnn5Cc5ccccc5)c4)c3s2)C1)N1CCOCC1 yields inhibition of -0.69

---

- assayedTarget: Phosphatidylinositol 4-kinase beta (Homo sapiens);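 also: values are mean percent inhibition of PI4K-beta activity, averaged over replicate measurements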
- details: at 1 µM
Assign inhibition to each entry below.
The response must be a number in % with no trailing unit.

Query CS(=O)(=O)CCNCc1ccc(-c2ccc3ncnc(Nc4ccc(OCc5ccccc5)cc4)c3c2)o1 yields inhibition of 0.45

Query O=C(O[C@H]1CN[C@H](C#Cc2cc3ncnc(Nc4ccc(OCc5cccc(F)c5)c(Cl)c4)c3s2)C1)N1CCOCC1 yields inhibition of 1.44

Query NS(=O)(=O)c1ccc(N/N=C2\C(=O)Nc3ccc(C(=O)NCc4ccncc4)cc32)cc1 yields inhibition of -0.17

Query COc1cc2c(cc1Nc1nc(Nc3cccc(F)c3C(N)=O)c3cc[nH]c3n1)N(C(=O)CN1CCN(C(C)C)CC1)CC2 yields inhibition of 0.87

Query COc1c(C(N)=O)cc(-c2ccc(Cl)cc2)cc1-c1ccc(S(N)(=O)=O)cc1 yields inhibition of 3.11

Query CCn1c(-c2nonc2N)nc2cncc(C(=O)NCCNC)c21 yields inhibition of 0.69

Query Cc1nnc(-c2cccc(-c3ccc(C(=O)NCC4CC4)cc3)c2)o1 yields inhibition of -1.44

Query CS(=O)(=O)CCNCc1ccc(-c2ccc3ncnc(Nc4ccc(OCc5cccc(C(F)(F)F)c5)cc4)c3c2)o1 yields inhibition of -0.43

Query CS(=O)(=O)Nc1ccc(-c2cc(-c3ccccc3)cc(C(N)=O)c2N)cc1 yields inhibition of -0.01

Query COc1cc(N2CCN(C(C)C)CC2)ccc1Nc1nc(Nc2cccc3ncccc23)c2cc[nH]c2n1 yields inhibition of -2.85

Query CN(c1ccc(NC(=O)NCCN2CCOCC2)cc1)c1ccnc(Nc2ccc(CS(C)(=O)=O)cc2)n1 yields inhibition of 4.4

Query CCCNc1cccc(-n2ncc3c(N/N=C/c4ccncc4)ncnc32)c1 yields inhibition of 4.32

Query N#Cc1cccc(Nc2ncc(-c3ccccc3)o2)c1 yields inhibition of -1.82

Query CC1=C(C(=O)Nc2ccc3[nH]ncc3c2)C(c2ccc(F)cc2)N=C(c2ccc(C(F)(F)F)nc2)N1 (centres undefined) yields inhibition of -3.27

Query Cc1cc(O)cc(C)c1/C=C/c1cncc(C(=O)OC(C)(C)C)c1 yields inhibition of 3.49

Query c1ccc(-c2n[nH]cc2-c2ccnc(-c3ccc(OCCn4ccnc4)cc3)c2)nc1 yields inhibition of 7.03

Query COc1ccccc1-c1cc(/C=C2\C(=O)Nc3ncc(Br)cc32)cc(Br)c1O yields inhibition of 7.13

Query CN(C)CCNC(=O)Nc1ccc(N(C)c2ccnc(Nc3ccc(CS(C)(=O)=O)cc3)n2)cc1 yields inhibition of 15.7

Query COc1ccc(Nc2ncc(-c3ccccc3)o2)cc1OC yields inhibition of 4.24
